The values you see were collected from patent US10047051B2.

- TARGET: CFTR-G1349D (Homo sapiens, UniProt P13569, G1349D)
- Sequence (P13569 whole entry G1349D): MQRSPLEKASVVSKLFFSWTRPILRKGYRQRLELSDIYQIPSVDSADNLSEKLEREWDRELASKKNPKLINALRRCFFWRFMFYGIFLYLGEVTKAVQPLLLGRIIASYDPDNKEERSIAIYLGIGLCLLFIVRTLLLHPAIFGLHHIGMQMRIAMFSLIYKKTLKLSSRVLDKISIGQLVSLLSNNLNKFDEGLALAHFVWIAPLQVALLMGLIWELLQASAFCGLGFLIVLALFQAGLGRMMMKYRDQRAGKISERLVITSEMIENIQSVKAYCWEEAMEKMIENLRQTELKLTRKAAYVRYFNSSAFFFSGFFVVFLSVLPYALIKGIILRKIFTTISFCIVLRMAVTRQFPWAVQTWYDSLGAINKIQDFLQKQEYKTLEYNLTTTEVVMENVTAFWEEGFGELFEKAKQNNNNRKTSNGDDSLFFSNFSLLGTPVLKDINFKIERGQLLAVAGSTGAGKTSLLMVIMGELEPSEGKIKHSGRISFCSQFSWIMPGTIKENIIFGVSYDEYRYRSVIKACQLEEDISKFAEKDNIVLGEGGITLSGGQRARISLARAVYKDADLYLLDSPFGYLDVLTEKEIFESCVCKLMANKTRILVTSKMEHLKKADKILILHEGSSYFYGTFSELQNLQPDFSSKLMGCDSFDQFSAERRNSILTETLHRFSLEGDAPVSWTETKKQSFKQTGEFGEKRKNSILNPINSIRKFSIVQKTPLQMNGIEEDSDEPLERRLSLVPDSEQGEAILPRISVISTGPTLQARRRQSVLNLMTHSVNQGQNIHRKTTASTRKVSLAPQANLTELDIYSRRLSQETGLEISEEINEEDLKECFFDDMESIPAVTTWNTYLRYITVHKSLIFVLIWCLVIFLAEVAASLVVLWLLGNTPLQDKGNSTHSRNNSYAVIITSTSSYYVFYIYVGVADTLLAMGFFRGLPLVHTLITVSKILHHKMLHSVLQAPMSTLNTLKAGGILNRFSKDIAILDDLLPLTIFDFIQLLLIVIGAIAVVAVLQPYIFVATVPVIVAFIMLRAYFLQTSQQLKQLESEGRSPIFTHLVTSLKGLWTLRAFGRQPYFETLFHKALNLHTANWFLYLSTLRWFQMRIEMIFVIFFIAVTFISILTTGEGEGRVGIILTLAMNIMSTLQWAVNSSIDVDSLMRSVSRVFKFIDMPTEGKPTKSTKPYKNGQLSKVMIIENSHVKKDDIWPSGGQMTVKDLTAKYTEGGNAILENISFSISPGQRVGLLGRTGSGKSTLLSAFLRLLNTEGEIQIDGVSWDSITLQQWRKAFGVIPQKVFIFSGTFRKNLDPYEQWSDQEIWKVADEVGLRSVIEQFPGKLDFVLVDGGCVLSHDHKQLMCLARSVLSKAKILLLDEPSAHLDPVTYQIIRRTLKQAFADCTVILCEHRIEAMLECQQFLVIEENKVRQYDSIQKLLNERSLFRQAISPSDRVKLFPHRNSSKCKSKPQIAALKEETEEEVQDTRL
- METHOD_DESCRIPTION: YFP-halide influx assay for the CFTR-G1349D
RECORDED_METRIC: pEC50
Recall that pEC50 is obtained by taking minus log10 of the concentration measured in molar.

Illustrative cases are given below, each with its answer.
[[record]]
compound = "CC(O)(CNC(=O)c1ncc(S(=O)(=O)c2ccc(OC(F)(F)F)cc2)cc1N)C(F)(F)F (stereo not shown)"
target = "CFTR-G1349D (Homo sapiens, UniProt P13569, G1349D)"
recorded_metric = "pEC50"
test_value = 6.25

[[record]]
compound = "CC(C)(C)C(O)CNC(=O)c1ncc(S(=O)(=O)c2ccc(OC(F)(F)F)cc2)cc1N (stereo not shown)"
target = "CFTR-G1349D (Homo sapiens, UniProt P13569, G1349D)"
recorded_metric = "pEC50"
test_value = 6.16

[[record]]
compound = "CCOCC1(CNC(=O)c2ncc(S(=O)(=O)c3ccc(OC(F)(F)F)cc3)cc2N)CCC1"
target = "CFTR-G1349D (Homo sapiens, UniProt P13569, G1349D)"
recorded_metric = "pEC50"
test_value = 6.11

[[record]]
compound = "Nc1cc(S(=O)(=O)c2ccc(OC(F)(F)F)cc2)cnc1C(=O)NCC1CCCO1 (stereo not shown)"
target = "CFTR-G1349D (Homo sapiens, UniProt P13569, G1349D)"
recorded_metric = "pEC50"
test_value = 6.26

[[record]]
compound = "CC(C)NC(=O)CNC(=O)c1ncc(S(=O)(=O)c2ccc(OC(F)(F)F)cc2)cc1N"
target = "CFTR-G1349D (Homo sapiens, UniProt P13569, G1349D)"
recorded_metric = "pEC50"
test_value = 6.34

[[record]]
compound = "C[C@H](O)CNC(=O)c1ncc(S(=O)(=O)c2ccc(C(F)(F)F)cc2)cc1N"
target = "CFTR-G1349D (Homo sapiens, UniProt P13569, G1349D)"
recorded_metric = "pEC50"
test_value = 6.27


Please find the next compound below.
Task: # value lookup — system CFTR-G1349D (Homo sapiens, UniProt P13569, G1349D), readout pEC50, item Nc1cc(S(=O)(=O)c2ccccc2OC(F)(F)F)cnc1C(=O)NC[C@@H](O)C(F)(F)F
Result: 8.02
